meta.source: PubChem BioAssay (Tox21)

molecular target: Nuclear receptor subfamily 1 group I member 2 (Homo sapiens); assay: Human pregnane X receptor (PXR) activation by small molecules, qHTS assay (AID 1346985); conditions: DPX-2 HepG2 CYP3A4-luciferase, 24 h; series mostly up to 38.3 µM; also: nearly all actives have a fitted effect of over 40% in size; as to activation: % is scaled to controls: 0 for no effect and ±100 for the full control effect
Results filed as inconclusive are left out. Active and inactive are the calls of the source. Calls follow the shape of the dose curve; as a rule, active = well fitted activation curve with a large enough effect in the repeat runs; inconclusive = weak or mixed curves; inactive = flat fitted curve, though single readings scatter.
Possible outcomes: yes (1) for active, no (0) for inactive

# compound, labelValue
measured = [
    ("CCCCCCCCCCCCCCCC[N+](C)(C)CCN(Cc1ccc(OC)cc1)c1ncccn1", "no (0)"),
    ("CCOC(=O)/C=C(C)/C=C/C=C(C)/C=C/c1c(C)cc(OC)c(C)c1C", "no (0)"),
    ("Clc1ccc2nsnc2c1NC1=NCCN1", "no (0)"),
    ("O=C(OC[C@H]1O[C@@H](OC(=O)c2cc(O)c(O)c(OC(=O)c3cc(O)c(O)c(O)c3)c2)[C@H](OC(=O)c2cc(O)c(O)c(OC(=O)c3cc(O)c(O)c(O)c3)c2)[C@@H](OC(=O)c2cc(O)c(O)c(OC(=O)c3cc(O)c(O)c(O)c3)c2)[C@@H]1OC(=O)c1cc(O)c(O)c(OC(=O)c2cc(O)c(O)c(O)c2)c1)c1cc(O)c(O)c(OC(=O)c2cc(O)c(O)c(O)c2)c1", "yes (1)"),
    ("CC1=C(C(=O)OC(C)C)C(c2cccc([N+](=O)[O-])c2)C(C(=O)OC2CN(C(c3ccccc3)c3ccccc3)C2)=C(N)N1 (centres undefined)", "yes (1)"),
    ("CCCCCCCCOc1ccccc1C(=O)Nc1ccc(C(=O)OCC[N+](C)(CC)CC)cc1", "no (0)"),
    ("CCCCCCC[N+](CC)(CC)CCCCc1ccc(Cl)cc1", "no (0)"),
    ("O=C1Cc2cc(CCN3CCN(c4nsc5ccccc45)CC3)c(Cl)cc2N1", "no (0)"),
    ("COc1cc(/C=C/C(=O)O[C@H]2CC[C@]34C[C@]35CC[C@]3(C)[C@@H]([C@H](C)CCC=C(C)C)CC[C@@]3(C)[C@@H]5CC[C@H]4C2(C)C)ccc1O", "no (0)"),
    ("CC(=O)N1CCN(c2ccc(OC[C@H]3CO[C@](Cn4ccnc4)(c4ccc(Cl)cc4Cl)O3)cc2)CC1", "no (0)"),
    ("COc1c(C)c2c(c(O)c1C/C=C(\\C)CCC(=O)O)C(=O)OC2", "no (0)"),
    ("Cc1cc(C2CCCCC2)n(O)c(=O)c1", "no (0)"),
    ("O=C(Oc1cccc2cccnc12)c1ccccc1", "no (0)"),
    ("COc1ccc(CN2CCN(C(c3ccc(F)cc3)c3ccc(F)cc3)CC2)c(OC)c1OC", "no (0)"),
    ("NC(=O)CC[C@@H]1NC(=O)[C@H](Cc2ccccc2)NC(=O)[C@H](Cc2ccc(O)cc2)NC(=O)CCSSC[C@@H](C(=O)N2CCC[C@H]2C(=O)N[C@@H](CCCN=C(N)N)C(=O)NCC(N)=O)NC(=O)[C@H](CC(N)=O)NC1=O", "no (0)"),
    ("CCN(CC)CCCC(C)Nc1c2ccc(Cl)cc2nc2ccc(OC)cc12 (centres undefined)", "no (0)"),
    ("O=C(N/N=C/c1ccccc1O)c1ccncc1", "no (0)"),
    ("C[C@@H]1C[C@H]2[C@@H]3CCC4=CC(=O)C=C[C@]4(C)[C@@]3(Cl)[C@@H](O)C[C@]2(C)[C@@]1(OC(=O)c1ccco1)C(=O)CCl", "yes (1)"),
    ("[O-][n+]1ccccc1SSc1cccc[n+]1[O-]", "yes (1)"),
]

====

biological target: Estrogen receptor (Homo sapiens) (UniProt P03372); test: qHTS assay to identify small molecule agonists of the estrogen receptor alpha (ER-alpha) signaling pathway (AID 743075); details: HEK293 ER-alpha-UAS-bla, beta-lactamase FRET ratio, 18 h;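 also: HEK293 GripTite cells with ER-alpha and UAS-driven beta-lactamase reporter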
Sequence (P03372 whole entry, looked up): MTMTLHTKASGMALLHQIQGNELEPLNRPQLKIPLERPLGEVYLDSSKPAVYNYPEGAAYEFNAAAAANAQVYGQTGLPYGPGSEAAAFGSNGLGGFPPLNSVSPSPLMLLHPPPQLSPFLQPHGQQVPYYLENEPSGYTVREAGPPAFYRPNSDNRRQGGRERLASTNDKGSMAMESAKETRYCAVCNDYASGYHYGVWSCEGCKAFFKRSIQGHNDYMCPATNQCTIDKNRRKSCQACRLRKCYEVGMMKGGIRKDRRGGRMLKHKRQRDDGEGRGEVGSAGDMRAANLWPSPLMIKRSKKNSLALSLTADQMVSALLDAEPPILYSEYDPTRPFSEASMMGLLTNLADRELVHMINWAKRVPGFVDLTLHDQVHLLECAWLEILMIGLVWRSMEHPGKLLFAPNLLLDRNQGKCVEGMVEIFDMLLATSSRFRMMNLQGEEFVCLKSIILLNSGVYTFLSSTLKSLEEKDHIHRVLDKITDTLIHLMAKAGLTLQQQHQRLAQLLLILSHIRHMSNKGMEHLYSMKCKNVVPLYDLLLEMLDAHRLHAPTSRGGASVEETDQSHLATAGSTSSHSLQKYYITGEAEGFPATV
Active and inactive are the calls of the source. Calls come from the whole dose curve.
Outcomes: active, inactive

# compound, targetOrSystem, labelValue
records = [
    ("O=[N+]([O-])c1ccccc1Nc1ccccc1", "Estrogen receptor (Homo sapiens) (UniProt P03372)", "inactive"),
    ("CCCCN1CCCC[C@H]1C(=O)Nc1c(C)cccc1C", "Estrogen receptor (Homo sapiens) (UniProt P03372)", "inactive"),
    ("O=c1[nH]cnc2nc[nH]c12", "Estrogen receptor (Homo sapiens) (UniProt P03372)", "inactive"),
    ("Cc1cccc(CN2CCN(C(c3ccccc3)c3ccc(Cl)cc3)CC2)c1 (stereo not drawn)", "Estrogen receptor (Homo sapiens) (UniProt P03372)", "inactive"),
    ("C/C=C1/C(=O)C[C@H]2[C@@H]3CCC4=CC(=O)CC[C@]4(C)[C@H]3CC[C@]12C", "Estrogen receptor (Homo sapiens) (UniProt P03372)", "inactive"),
    ("Cc1cc(O)c(Cl)c(C)c1Cl", "Estrogen receptor (Homo sapiens) (UniProt P03372)", "inactive"),
    ("O=C(NO)C1(NS(=O)(=O)c2ccc(Oc3ccc(F)cc3)cc2)CCOCC1", "Estrogen receptor (Homo sapiens) (UniProt P03372)", "inactive"),
    ("O=c1c(-c2ccccc2)c1-c1ccccc1", "Estrogen receptor (Homo sapiens) (UniProt P03372)", "inactive"),
    ("OCCN1CCN(CC/C=C2/c3ccccc3Sc3ccc(C(F)(F)F)cc32)CC1", "Estrogen receptor (Homo sapiens) (UniProt P03372)", "inactive"),
    ("N/C(=N\\N=C\\c1ccc(Cl)cc1)N/N=C/c1ccc(Cl)cc1", "Estrogen receptor (Homo sapiens) (UniProt P03372)", "inactive"),
    ("CC(=O)SC[C@@H](Cc1ccccc1)C(=O)NCC(=O)OCc1ccccc1", "Estrogen receptor (Homo sapiens) (UniProt P03372)", "inactive"),
    ("COc1cccc2c1C(=O)c1c(O)c3c(c(O)c1C2=O)C[C@@](O)(C(=O)CO)C[C@@H]3O[C@H]1C[C@H](N)[C@H](O[C@@H]2CCCCO2)[C@H](C)O1", "Estrogen receptor (Homo sapiens) (UniProt P03372)", "active"),
    ("CC[C@H](c1ccc(O)cc1)[C@@H](CC)c1ccc(O)cc1", "Estrogen receptor (Homo sapiens) (UniProt P03372)", "active"),
    ("Cc1cc(CCN2CCN(c3nsc4ccccc34)CC2)cc2c1NC(=O)CC2(C)C", "Estrogen receptor (Homo sapiens) (UniProt P03372)", "inactive"),
    ("CCCC(C)c1ccccc1O (stereo not drawn)", "Estrogen receptor (Homo sapiens) (UniProt P03372)", "inactive"),
    ("CC[C@@]1(O)C(=O)OCc2c1cc1n(c2=O)Cc2cc3c(CN(C)C)c(O)ccc3nc2-1", "Estrogen receptor (Homo sapiens) (UniProt P03372)", "inactive"),
    ("CCCCCOC(=O)CCCC", "Estrogen receptor (Homo sapiens) (UniProt P03372)", "inactive"),
    ("Cc1c(C)c2c(c(C)c1O)CCC(C)(COc1ccc(CC3SC(=O)NC3=O)cc1)O2 (stereo not drawn)", "Estrogen receptor (Homo sapiens) (UniProt P03372)", "inactive"),
    ("O=C(NOCC1CC1)c1ccc(F)c(F)c1Nc1ccc(I)cc1Cl", "Estrogen receptor (Homo sapiens) (UniProt P03372)", "inactive"),
    ("CSc1cnc(C)cn1", "Estrogen receptor (Homo sapiens) (UniProt P03372)", "inactive"),
    ("Cc1ccc2oc(CN(Cc3ccccc3)C(=O)Nc3c(F)cc(F)cc3F)c(-c3ccc(Cl)cc3)c2c1", "Estrogen receptor (Homo sapiens) (UniProt P03372)", "inactive"),
    ("CSc1ccc2c(c1)C(N1CCN(C)CC1)Cc1ccccc1S2 (stereo not drawn)", "Estrogen receptor (Homo sapiens) (UniProt P03372)", "inactive"),
    ("CC(C)n1nc(-c2cc3cc(O)ccc3[nH]2)c2c(N)ncnc21", "Estrogen receptor (Homo sapiens) (UniProt P03372)", "inactive"),
]

====

test: qHTS assay for small molecule activators of the heat shock response signaling pathway (AID 743210); conditions: HeLa HSE-bla reporter, beta-lactamase ratio, 5 h; series mostly up to 62.6 µM;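 also: HeLa cells with beta-lactamase reporter driven by heat shock elements; % is scaled to controls: 0 for no effect and ±100 for the full control effect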
Results filed as inconclusive are left out. Calls of active or inactive are those of the source. Calls follow the shape of the dose curve; as a rule, active = well fitted activation curve with a large enough effect in the signal ratio in the repeat runs, with a control signal flat (not every such curve was filed as active); inconclusive = weak or mixed curves; inactive = flat fitted curve, though single readings scatter; the % refers to the signal ratio.
experimentalEndpoint: outcome

# molecule, valueReported
data = [
    ("Clc1ccc2nsnc2c1NC1=NCCN1", "inactive"),
    ("O=C1c2c(O)ccc(Nc3ccc(CCO)cc3)c2C(=O)c2c([N+](=O)[O-])ccc(O)c21", "inactive"),
    ("Nc1ccccc1O", "inactive"),
    ("Cc1ccc(O)c(C(C)(C)C)c1", "inactive"),
    ("Cc1c(C)c2c(c(C)c1OC(=O)CCC(=O)O)CC[C@@](C)(CCC[C@H](C)CCC[C@H](C)CCCC(C)C)O2", "inactive"),
    ("CCCC1O[C@@H]2C[C@H]3[C@@H]4CCC5=CC(=O)C=C[C@]5(C)[C@H]4[C@@H](O)C[C@]3(C)[C@]2(C(=O)CO)O1 (stereo partly drawn)", "inactive"),
    ("CC(C)(C)C1CCC(CC2=C(O)c3ccccc3C(=O)C2=O)CC1 (stereo not drawn)", "inactive"),
    ("CCC(CN)=C(c1ccccc1)c1ccccc1", "inactive"),
    ("C[C@H]1[C@H]2CC[C@H]3[C@@H]4CC=C5C[C@@H](N(C)C)CC[C@]5(C)[C@H]4CC[C@]23CN1C", "inactive"),
    ("CNCc1cc(F)ccc1Oc1ccc(Cl)c(Cl)c1", "inactive"),
    ("CCC1=C[C@@H]2CN(C1)Cc1c([nH]c3ccccc13)[C@@](C(=O)OC)(c1cc3c(cc1OC)N(C)[C@H]1[C@@](O)(C(=O)OC)[C@H](OC(C)=O)[C@]4(CC)C=CCN5CC[C@]31[C@@H]54)C2", "inactive"),
    ("O=C(NO)C1(NS(=O)(=O)c2ccc(Oc3ccc(F)cc3)cc2)CCOCC1", "inactive"),
    ("Nc1c(Cl)cc(Cl)cc1Cl", "inactive"),
    ("CCC(N)(CO)CO", "inactive"),
    ("N#CC1(c2ccc(F)cc2)CCC(=O)CC1", "inactive"),
    ("Cc1cc(N)c(S(=O)(=O)O)cc1Cl", "inactive"),
    ("CCCC(C)c1ccccc1O (stereo not drawn)", "inactive"),
    ("CN(C/C=C/C#CC(C)(C)C)Cc1cccc2ccccc12", "inactive"),
]
